Target: Fibroblast growth factor receptor 3 (Homo sapiens) (UniProt P22607)
Sequence (P22607 23-806 limits assumed): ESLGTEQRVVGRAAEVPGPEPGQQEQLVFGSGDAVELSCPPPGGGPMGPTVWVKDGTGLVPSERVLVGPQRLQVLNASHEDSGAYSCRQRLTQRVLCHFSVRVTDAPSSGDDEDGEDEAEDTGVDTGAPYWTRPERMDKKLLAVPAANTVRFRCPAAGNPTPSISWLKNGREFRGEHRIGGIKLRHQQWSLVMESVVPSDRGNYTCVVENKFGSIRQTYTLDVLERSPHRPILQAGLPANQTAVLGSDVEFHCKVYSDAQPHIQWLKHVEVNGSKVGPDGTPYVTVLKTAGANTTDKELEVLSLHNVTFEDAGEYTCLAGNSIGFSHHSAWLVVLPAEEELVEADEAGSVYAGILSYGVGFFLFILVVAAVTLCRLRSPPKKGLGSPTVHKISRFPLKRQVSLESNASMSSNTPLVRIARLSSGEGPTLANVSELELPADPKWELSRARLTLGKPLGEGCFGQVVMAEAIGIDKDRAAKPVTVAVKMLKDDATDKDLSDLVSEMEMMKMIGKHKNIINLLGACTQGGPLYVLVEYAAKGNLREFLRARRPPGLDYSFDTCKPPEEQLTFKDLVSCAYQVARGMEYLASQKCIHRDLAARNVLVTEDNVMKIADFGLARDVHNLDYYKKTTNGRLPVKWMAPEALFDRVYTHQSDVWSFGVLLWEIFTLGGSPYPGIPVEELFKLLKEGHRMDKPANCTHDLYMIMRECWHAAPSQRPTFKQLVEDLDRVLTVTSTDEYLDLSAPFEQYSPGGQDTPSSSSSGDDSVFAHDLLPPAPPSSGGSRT
Conditions: Compound concentration 20.0 uM, Protein concentration 2.0 uM, Result type QC Liability
Description: Thermal Shift Assay. Domain: start/stop: P449-E759
experimental_endpoint: ΔTm (°C)
Expressed in °C, but write only the number.

So, `Cc1cc2nc(N3CCC(C(=O)NC4CCCC4)CC3)n(C(C)C)c2cc1C` ? Its ΔTm was 0.35

For reference, reported ΔTm for `COc1c(OCCCN2CCOCC2)ccc2c1N=C(NC(=O)c1cnc(N)nc1)N1CCN=C21` stands at 0.63

Value of measured ΔTm for the entry `O=C(CNCc1cc2ccccc2[nH]1)N[C@H]1CC[C@@H](c2nc3ccccc3[nH]2)CC1` : 0.46

Others:
// `CN(C)[C@H]1CCc2nc(NC(=O)c3cccc(Cn4cc(-c5ccc(C#N)cc5)cn4)c3)sc2C1` : ΔTm value = 0.81

Recorded ΔTm (compound O=C1CCC(N2Cc3cc(CNC(=O)C(F)(F)c4ccc(Cl)cc4)ccc3C2=O)C(=O)N1 (stereo not drawn) ): 0.44

Short answer for `N#C/C(=C\c1ccc(O)c(O)c1)C(=O)OCCc1cccs1` : ΔTm was 1.51

---

Target: Fibroblast growth factor receptor 3 (Homo sapiens)
Conditions: Compound concentration 20.0 uM, Protein concentration 2.0 uM, Result type QC Liability
experimental_endpoint: ΔTm

Guide cases for ΔTm, answers given:
For `CNC(=O)c1ccc(C)c(-n2c(C)cc(OCc3ccc(F)cc3F)c(Br)c2=O)c1` the compound record lists ΔTm as -1.16 °C

Entry `O=C(Nc1cc2cc[nH]c(=O)c2cc1Cl)[C@H]1CNC[C@@H]1c1cccnc1` — recorded ΔTm = 0.4 °C

Please fill in: ΔTm reported for `C[C@H]1CN(C2COC2)CCN1c1ccc(Nc2cc(-c3ccnc(N4CCn5c(cc6c5CC(C)(C)C6)C4=O)c3CO)cn(C)c2=O)nc1` = 4.28 °C

---
For reference, reported ΔTm for `CN(C)C(=O)Cn1cc(-c2ccc(-c3nnc4ccccn34)cc2)cn1` stands at 0.47 °C

// `CS(C)(=O)=Nc1ccc(-c2ccc(-c3nc4[nH]c(O[C@@H]5CO[C@H]6[C@@H]5OC[C@H]6O)nc4cc3Cl)cc2)cc1` : ΔTm value = 0.49 °C

So for `CC(C)(C)c1cc(NC(=O)c2csc(Nc3ccccn3)n2)no1` , the logged ΔTm turned out to be 0.72 °C

---

Target: Peregrin (Homo sapiens)
Sequence (whole entry): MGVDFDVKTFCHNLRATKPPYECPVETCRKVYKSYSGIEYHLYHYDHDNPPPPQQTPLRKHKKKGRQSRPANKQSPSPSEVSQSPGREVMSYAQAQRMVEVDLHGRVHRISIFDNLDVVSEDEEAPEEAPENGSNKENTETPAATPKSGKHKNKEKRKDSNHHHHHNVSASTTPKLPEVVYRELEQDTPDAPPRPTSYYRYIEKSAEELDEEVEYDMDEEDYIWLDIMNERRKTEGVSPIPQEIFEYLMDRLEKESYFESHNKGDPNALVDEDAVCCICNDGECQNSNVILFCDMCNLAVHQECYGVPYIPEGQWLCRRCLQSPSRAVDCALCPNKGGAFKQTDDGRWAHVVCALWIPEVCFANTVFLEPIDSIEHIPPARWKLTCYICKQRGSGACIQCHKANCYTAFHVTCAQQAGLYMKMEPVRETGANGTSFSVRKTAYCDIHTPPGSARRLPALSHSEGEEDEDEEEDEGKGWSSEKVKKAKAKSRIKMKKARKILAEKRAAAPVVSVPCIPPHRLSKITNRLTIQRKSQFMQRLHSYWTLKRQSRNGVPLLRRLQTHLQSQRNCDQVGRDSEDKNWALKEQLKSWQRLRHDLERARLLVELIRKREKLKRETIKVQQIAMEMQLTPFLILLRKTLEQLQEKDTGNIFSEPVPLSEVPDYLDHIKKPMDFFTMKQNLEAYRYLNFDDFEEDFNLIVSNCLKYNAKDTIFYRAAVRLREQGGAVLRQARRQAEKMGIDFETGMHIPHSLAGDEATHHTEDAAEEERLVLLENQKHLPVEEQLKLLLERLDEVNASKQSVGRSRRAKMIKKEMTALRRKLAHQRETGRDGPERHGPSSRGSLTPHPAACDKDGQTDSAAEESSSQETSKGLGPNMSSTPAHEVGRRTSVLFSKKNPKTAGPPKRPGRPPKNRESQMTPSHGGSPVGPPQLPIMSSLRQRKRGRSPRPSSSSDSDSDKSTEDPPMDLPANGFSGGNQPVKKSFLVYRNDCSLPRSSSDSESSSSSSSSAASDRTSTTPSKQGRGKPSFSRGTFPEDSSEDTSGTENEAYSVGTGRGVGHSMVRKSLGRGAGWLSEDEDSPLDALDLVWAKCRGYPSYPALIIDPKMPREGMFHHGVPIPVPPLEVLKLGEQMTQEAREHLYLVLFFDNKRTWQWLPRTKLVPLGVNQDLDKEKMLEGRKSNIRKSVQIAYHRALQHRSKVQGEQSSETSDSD
Details: Compound concentration 20.0 uM, Protein concentration 2.0 uM, Result type QC Liability
experimental_endpoint: ΔTm (°C)
State the answer as a number, implicitly in °C.

Examples with answers:
# ΔTm measured on Peregrin (Homo sapiens) for item `CO[C@H]1CC[C@H](N(c2cc(F)c(Oc3ncc(Cn4nccn4)cc3C(F)(F)F)cc2C(=O)O)C(=O)[C@H]2CC[C@H](C)CC2)CC1` = -4.09

With Peregrin (Homo sapiens) as the test system, `CCOP(=O)(OCC)C(=Cc1cc(C(C)(C)C)c(O)c(C(C)(C)C)c1)P(=O)(OCC)OCC` showed ΔTm of -1.65

Please examine the following record next.
Test item `COc1cc(C(N)=O)ccc1Nc1ncc2c(n1)N(CCC(C)C)[C@H](C)C(=O)N2C` ; Peregrin (Homo sapiens); reported ΔTm was 1.82

Values were extracted from ChEMBL document CHEMBL5308504.
